Source: patent US20200323962A1

# condition.info: PAMPA, pH 7.4
Marks after values point to notes of the source that are not given here. Where a SMILES comes first, the peptide text is derived from it. [ ]: non-standard residue; d: D form. Arg(ω,ω'-(C6H13OCO)2) = CCCCCCOC(=O)N=C(NCCC[C@H](N)C(=O)O)NC(=O)OCCCCCC
value.kind: Permeability, Mean

// solved cases for Permeability, Mean follow
CCCCCCOC(=O)N=C(NCCC[C@@H]1NC(=O)[C@H](Cc2ccccc2)NC(=O)[C@@H]2CCCN2C(=O)[C@@H]2CCCN2C(=O)[C@H](CC(C)C)NC(=O)[C@H](C)NC(=O)[C@H](CC(C)C)NC(=O)[C@H](CC(=O)OC)NC(=O)CNC1=O)NC(=O)OCCCCCC [AR372] (cyclo(ALPPF[Arg(ω,ω'-(C6H13OCO)2)]GD(OMe)L)): −5.9 Log10[10^−6 cm/s]
CC(C)C[C@@H]1NC(=O)[C@H](CC(=O)O)NC(=O)CNC(=O)[C@H](CCCNC(=N)N)NC(=O)[C@H](Cc2ccccc2)NC(=O)[C@@H]2CCCN2C(=O)[C@@H]2CCCN2C(=O)[C@H](CC(C)C)NC(=O)[C@H](C)NC1=O [OM1186] (cyclo(RGDLALPPF)): <−7 Log10[10^−6 cm/s]
C=C[C@H]1C[N@@]2CC[C@H]1C[C@@H]2[C@@H](O)c1ccnc2ccc(OC)cc12 [Quinidine, reference compound]: −4.5* Log10[10^−6 cm/s]
CNC(=C[N+](=O)[O-])NCCSCc1ccc(CN(C)C)o1 [Ranitidine, reference compound]: <−7* Log10[10^−6 cm/s]
C[C@@H]1NC(=O)[C@H](C)NC(=O)[C@@H](C)N(C)C(=O)[C@H](C)N(C)C(=O)[C@H](C)NC(=O)[C@H](C)NC1=O [1,6CHA, *aAAAA*A]: <−7 Log10[10^−6 cm/s]
CCCCCCOC(=O)N=C(NCCC[C@@H]1NC(=O)[C@H](C(C)C)N(C)C(=O)[C@@H](Cc2ccccc2)NC(=O)[C@H](CC(=O)OC)NC(=O)CNC1=O)NC(=O)OCCCCCC [Cil.-P, c(f*VR(Hoc)2 GD)]: −6.5 Log10[10^−6 cm/s]

Pending compound:
Exercise: Could you share which Permeability, Mean value was measured for CCCCCCOC(=O)N=C(N)NCCC[C@@H]1NC(=O)[C@@H](C(C)C)N(C)C(=O)[C@H](C)N(C)C(=O)[C@H](C)NC(=O)[C@H](CC(=O)OC)NC(=O)CNC1=O [#29P-Hoc] ?
Key: <−7 Log10[10^−6 cm/s]

* * *

# measurement.protocol: in vitro
# condition.info: human, Caco-2, pH 7.4, Papp (AB), Mean
value.kind: Papp A→B at 90 min, 10 μM (×10⁻⁶ cm/s)
I only need the number, in ×10⁻⁶ cm/s, no unit after it.

C[C@H]1O[C@@H](O[C@H]2[C@@H](O)C[C@H](O[C@H]3[C@@H](O)C[C@H](O[C@H]4CC[C@@]5(C)[C@H](CC[C@@H]6[C@@H]5C[C@@H](O)[C@]5(C)[C@@H](C7=CC(=O)OC7)CC[C@]65O)C4)O[C@@H]3C)O[C@@H]2C)C[C@H](O)[C@@H]1O: 0.4

Exercise: Could you share which Papp A→B at 90 min, 10 μM value was measured for CC(C)NCC(O)COc1cccc2ccccc12 (centres unmarked) ?
Key: 18.1
